Parameter IC50: see the listing below.
molecular target: recombinant purified human EHMT2 913-1193 (Homo sapiens, UniProt Q96KQ7); construct: Recombinant purified human EHMT2 913-1193 (55 μM) synthesized by Viva was used for all experiments; purchased Viva; assay: EHMT2 enzyme assay on histone peptide substrate (3H-SAM Flashplate); type: biochemical; conditions: read-out: EHMT2 PEP (IC50 μM)
Sequence (Q96KQ7 913-1193): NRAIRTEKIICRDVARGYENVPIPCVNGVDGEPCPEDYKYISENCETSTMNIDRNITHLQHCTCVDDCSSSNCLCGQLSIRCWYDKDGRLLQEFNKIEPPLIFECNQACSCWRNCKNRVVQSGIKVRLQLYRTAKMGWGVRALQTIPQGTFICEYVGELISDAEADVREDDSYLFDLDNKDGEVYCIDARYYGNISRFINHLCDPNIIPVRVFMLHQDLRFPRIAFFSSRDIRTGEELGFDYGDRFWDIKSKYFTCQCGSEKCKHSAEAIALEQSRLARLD

IC50 of CCc1ccc(Nc2nc(C)cc(NC)n2)cc1-c1cc2ccncc2[nH]1 on recombinant purified human EHMT2 913-1193 (Homo sapiens, UniProt Q96KQ7)?
< 0.1 µM

Query IC50 on recombinant purified human EHMT2 913-1193 (Homo sapiens, UniProt Q96KQ7) for CNc1nc2cc(-c3cc4ccncc4[nH]3)c(C)cc2n1C
< 0.1 µM

Value wanted: IC50 (recombinant purified human EHMT2 913-1193 (Homo sapiens, UniProt Q96KQ7)) of entry CNc1cc(-c2cc(Nc3nc(C)cc(NC)n3)ccc2OC)nc(C)n1
0.1 to 1 µM

Param readout= IC50; system= recombinant purified human EHMT2 913-1193 (Homo sapiens, UniProt Q96KQ7); entry= CNC1=Nc2cc(-n3cc([C@H]4CCCN4)nn3)c(OC)cc2C12CCC2 ; returns value.
< 0.1 µM

Form field: IC50 recorded for CNc1cc(C)nc(Nc2cnc(OC)c(-n3cc(CN(C)C)cn3)c2)n1 with recombinant purified human EHMT2 913-1193 (Homo sapiens, UniProt Q96KQ7) (enter value)
0.1 to 1 µM

----------
# maps each entry to its IC50
target: recombinant purified human EHMT2 913-1193 (Homo sapiens, UniProt Q96KQ7); construct: Recombinant purified human EHMT2 913-1193 (55 μM) synthesized by Viva was used for all experiments; purchased Viva; assay: EHMT2 enzyme assay on histone peptide substrate (3H-SAM Flashplate); type: biochemical; settings: read-out: EHMT2 PEP (IC50 μM)

Record excerpt, results attached:
For CNc1cc(C)nc(Nc2ccc(Cl)c(C(=O)Nc3cccnc3)c2)n1 [Compound 240] , what is its reported IC50?
> 10 µM

What measured IC50 goes with CNc1cc(C)nc(Nc2ccc(OC)c(-c3nnc(C)[nH]3)c2)n1 [Compound 11] ?
> 10 µM

Further cases:
Report IC50 for CNCc1cnn(-c2cc(Nc3nc(C)cc(NC)n3)ccc2Br)c1 [Compound 319] please.
< 0.1 µM

Given the entry CNc1cc(C)nc(Nc2ccc(OC)c(-c3cc4[nH]cc(C)c4cn3)c2)n1 [Compound 386] , report its measured IC50.
< 0.1 µM

----------
The following molecules are shown together with reported IC50 values.
molecular target: EHMT1 (Homo sapiens, UniProt Q9H9B1); assay: EHMT1 PEP (EHMT1 peptide enzyme assay); assay type: biochemical; details: peptide substrate enzyme assay
Sequence (Q9H9B1 whole entry): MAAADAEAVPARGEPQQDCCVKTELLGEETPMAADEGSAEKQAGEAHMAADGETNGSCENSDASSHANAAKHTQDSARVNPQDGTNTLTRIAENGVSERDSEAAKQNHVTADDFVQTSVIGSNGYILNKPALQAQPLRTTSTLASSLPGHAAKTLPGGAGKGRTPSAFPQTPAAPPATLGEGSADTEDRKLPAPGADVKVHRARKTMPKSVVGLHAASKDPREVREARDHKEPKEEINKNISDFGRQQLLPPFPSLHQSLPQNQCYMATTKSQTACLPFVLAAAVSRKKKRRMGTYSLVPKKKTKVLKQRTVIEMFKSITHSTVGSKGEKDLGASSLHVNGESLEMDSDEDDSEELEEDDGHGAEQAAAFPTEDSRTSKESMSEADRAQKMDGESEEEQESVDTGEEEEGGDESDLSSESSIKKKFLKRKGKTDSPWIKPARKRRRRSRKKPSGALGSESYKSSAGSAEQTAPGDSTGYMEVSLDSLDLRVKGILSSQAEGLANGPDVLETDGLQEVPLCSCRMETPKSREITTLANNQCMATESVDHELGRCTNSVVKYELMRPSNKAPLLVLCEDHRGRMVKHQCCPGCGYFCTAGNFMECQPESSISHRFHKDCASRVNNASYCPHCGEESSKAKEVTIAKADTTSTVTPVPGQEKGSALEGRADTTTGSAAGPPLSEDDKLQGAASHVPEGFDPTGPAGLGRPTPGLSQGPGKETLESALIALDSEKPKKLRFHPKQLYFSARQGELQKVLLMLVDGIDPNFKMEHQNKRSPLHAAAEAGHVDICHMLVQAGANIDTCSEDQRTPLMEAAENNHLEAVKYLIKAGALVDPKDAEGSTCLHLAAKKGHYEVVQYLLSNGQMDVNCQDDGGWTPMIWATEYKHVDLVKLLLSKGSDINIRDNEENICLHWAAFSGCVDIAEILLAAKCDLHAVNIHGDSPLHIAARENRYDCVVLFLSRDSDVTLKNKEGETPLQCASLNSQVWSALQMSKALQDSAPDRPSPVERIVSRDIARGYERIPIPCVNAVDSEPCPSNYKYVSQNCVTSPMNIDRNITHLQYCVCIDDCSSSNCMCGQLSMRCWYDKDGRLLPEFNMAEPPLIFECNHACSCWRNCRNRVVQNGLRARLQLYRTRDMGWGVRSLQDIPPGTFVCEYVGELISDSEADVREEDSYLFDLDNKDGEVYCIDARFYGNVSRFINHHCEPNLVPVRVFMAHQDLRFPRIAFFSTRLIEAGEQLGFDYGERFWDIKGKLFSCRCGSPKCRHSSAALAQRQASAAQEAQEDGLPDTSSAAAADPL

What measured IC50 is associated with CNc1cc(C)nc(Nc2ccc(C)c(-c3cc4ccccc4[nH]3)c2)n1 on EHMT1 (Homo sapiens, UniProt Q9H9B1)?
1 to 10 µM

Observed IC50 on EHMT1 (Homo sapiens, UniProt Q9H9B1) for COc1cc(NC2CCNC2)ccc1-c1[nH]c2cnccc2c1C (centres unmarked) , please.
1 to 10 µM

Can you look up IC50 on EHMT1 (Homo sapiens, UniProt Q9H9B1) for CNc1nc2cc(-c3cc4[nH]ccc4cn3)c(C)cc2n1C ?
0.1 to 1 µM

Return IC50 measured with EHMT1 (Homo sapiens, UniProt Q9H9B1) given this molecule: CNc1cc(C)nc(Nc2ccc(OC)c(-c3cc4[nH]cc(F)c4cn3)c2)n1
< 0.1 µM

# value lookup — system EHMT1 (Homo sapiens, UniProt Q9H9B1), readout IC50, item CNc1cc(C)nc(Nc2ccc(OC)c(-n3cc4c(n3)CCN(C)C4)c2)n1
< 0.1 µM

Lab note: next molecule to report on.
Notebook entry, EHMT1 (Homo sapiens, UniProt Q9H9B1) assay: IC50 of CNc1ccnc(Nc2ccc(OC)c(-n3cc(CN(C)C)nn3)c2)n1 = ?
< 0.1 µM

----------
biological target: recombinant purified human EHMT2 913-1193 (Homo sapiens); construct: Recombinant purified human EHMT2 913-1193 (55 μM) synthesized by Viva was used for all experiments; purchased Viva; assay: EHMT2 enzyme assay on histone peptide substrate (3H-SAM Flashplate); type: biochemical; settings: read-out: EHMT2 PEP (IC50 μM)
Measured IC50 accompanies every entry in the list below.

Value lookup for IC50; key = CNCc1cnn(-c2cc3nc(NC)cc(C4CCOCC4)c3cc2OC)c1 [Compound 184]
0.1 to 1 µM

I have this molecule here, Cc1cc(NC2CCNCC2)ncc1-c1cc2[nH]ccc2cn1 [Compound 247] , and I need its recorded IC50.
1 to 10 µM

Next:
Any idea what its IC50 is? The molecule is CNc1cc(C)nc(Nc2ccc(OC)c(-n3cnc(CN4CC(F)C4)n3)c2)n1 [Compound 68]
> 10 µM

----------
target: EHMT1 (Homo sapiens, UniProt Q9H9B1); experiment: EHMT1 PEP (EHMT1 peptide enzyme assay); assay type: biochemical; conditions: peptide substrate enzyme assay
Quick reference: IC50 of the listed items.

Guide cases for IC50, answers given:
# query: IC50 of entry CNc1cc(C)nc(Nc2ccc(C)c(C(=O)Nc3cccnc3)c2)n1
> 10 µM

Query: IC50; subject: CNc1cc(C)nc(Nc2ccc(OC)c(-c3cn4c(n3)CNCC4)c2)n1
0.1 to 1 µM

Others:
Consider the compound shown here: CNc1cc(C)nc(Nc2ccc(OC)c(-n3nnc(C)c3CN(C)C)c2)n1 What is its recorded IC50?
> 10 µM

Suppose we examine the compound CNc1cc(C)nc(Nc2ccc(C)c(C(=O)Nc3cn(C)nn3)c2)n1 ; what IC50 value has been reported?
1 to 10 µM

----------
Molecular target: recombinant purified human EHMT2 913-1193 (Homo sapiens)
Construct: Recombinant purified human EHMT2 913-1193 (55 μM) synthesized by Viva was used for all experiments; purchased Viva
Test: EHMT2 enzyme assay on histone peptide substrate (3H-SAM Flashplate)
Format: biochemical
Conditions: read-out: EHMT2 PEP (IC50 μM)
Description: Recombinant purified human EHMT2 913-1193 (55 μM) synthesized by Viva was used for all experiments. Biotinylated histone peptides were synthesized by Biopeptide and HPLC-purified to >95% purity. […] 384-well Flashplates and 96-well filter binding plates were read on a TopCount microplate reader (PerkinElmer). […]
measurement type: IC50

Recorded results for 2 molecules are shown here.
# query: IC50 of entry CNc1cc(C)nc(Nc2ccc(OC)c(-n3cc(C4CCCN4)nn3)c2)n1 (stereo not drawn)
< 0.1 µM

Any idea what IC50 was measured for CCNc1c[nH]c(=O)c(-c2cc(Nc3nc(C)cc(NC)n3)ccc2C)c1 ?
1 to 10 µM

Could you now consider this next molecule?
I'd like to know its IC50. The molecule in question is CNc1cc(C)nc(Nc2ccc(OC)c(-c3cc4[nH]c(C)cc4cn3)c2)n1
< 0.1 µM

----------
Recorded measurements of IC50, one per entry
target: EHMT1 (Homo sapiens); test: EHMT1 PEP (EHMT1 peptide enzyme assay); assay type: biochemical; conditions: peptide substrate enzyme assay

Some solved cases for reference:
// query IC50 value for entry CNc1cc(C)nc(Nc2ccc(OC)c(-n3cc([C@@H]4CCCN4)cn3)c2)n1 [Compound 333]
< 0.1 µM

Need IC50, item CNc1cc(C)nc(Nc2ccc(OC)c(-n3cnc(CN4CC(F)C4)n3)c2)n1 [Compound 68]
> 10 µM

Report IC50 for CNC1=Nc2cc(-n3cc(C4CCCN4)cn3)c(OC)cc2C12CCC2 (stereo not shown) [Compound 322] please.
< 0.1 µM

---
Given the entry CNc1cc(C)nc(Nc2ccc(OC)c(-c3ccc4cc[nH]c4n3)c2)n1 [Compound 42] , report its measured IC50.
> 10 µM

----------
This section presents compounds with their documented IC50 values.
biological target: EHMT1 (Homo sapiens, UniProt Q9H9B1); test: EHMT1 PEP (EHMT1 peptide enzyme assay); assay type: biochemical; conditions: peptide substrate enzyme assay

Some compounds with recorded IC50:
# input compound: CNc1cc(C)nc(Nc2ccc(OC)c(-c3ccc4cc(C)[nH]c4c3)c2)n1 ; wanted: its IC50
> 10 µM

Which IC50 is reported for this compound? CNc1cc(C)nc(Nc2ccc(OC)c(-n3cc4cc(C)ccc4n3)c2)n1
1 to 10 µM

For the compound CNc1cc(C)nc(Nc2ccc(OC)c(-n3cc(CN)cn3)c2)n1 , what IC50 is on record?
< 0.1 µM

Requested field: IC50. Item: CNc1cc(C)nc(Nc2ccc(OC)c(-c3cn4ccnc4cn3)c2)n1
0.1 to 1 µM

Look up IC50: CNc1cc(C)nc(Nc2ccc(OC)c(-c3[nH]c4cnccc4c3C#N)c2)n1
1 to 10 µM

***
Consider the compound CNc1cc(C)nc(Nc2ccc(OC)c(-n3ncc4c3CCNC4)c2)n1 and give its measured IC50.
< 0.1 µM

Look up IC50 for this compound: CNc1cc(-c2cc(Nc3nc(C)cc(NC)n3)ccc2OC)nc(C)n1
< 0.1 µM

Request the reported IC50 associated with CNc1cc(C)nc(Nc2ccc(OC)c(-c3cc4cnccc4n3C)c2)n1
< 0.1 µM

Which IC50 value is on record for CNc1cc(C)nc(Nc2ccc(OC)c(-c3nc4n(n3)CCN(C)C4)c2)n1 ?
> 10 µM
